# credit: patent US12390536B2

- target-of-assay: mouse TLR7 (Mus musculus, UniProt P58681)
- Sequence (P58681 27-1050): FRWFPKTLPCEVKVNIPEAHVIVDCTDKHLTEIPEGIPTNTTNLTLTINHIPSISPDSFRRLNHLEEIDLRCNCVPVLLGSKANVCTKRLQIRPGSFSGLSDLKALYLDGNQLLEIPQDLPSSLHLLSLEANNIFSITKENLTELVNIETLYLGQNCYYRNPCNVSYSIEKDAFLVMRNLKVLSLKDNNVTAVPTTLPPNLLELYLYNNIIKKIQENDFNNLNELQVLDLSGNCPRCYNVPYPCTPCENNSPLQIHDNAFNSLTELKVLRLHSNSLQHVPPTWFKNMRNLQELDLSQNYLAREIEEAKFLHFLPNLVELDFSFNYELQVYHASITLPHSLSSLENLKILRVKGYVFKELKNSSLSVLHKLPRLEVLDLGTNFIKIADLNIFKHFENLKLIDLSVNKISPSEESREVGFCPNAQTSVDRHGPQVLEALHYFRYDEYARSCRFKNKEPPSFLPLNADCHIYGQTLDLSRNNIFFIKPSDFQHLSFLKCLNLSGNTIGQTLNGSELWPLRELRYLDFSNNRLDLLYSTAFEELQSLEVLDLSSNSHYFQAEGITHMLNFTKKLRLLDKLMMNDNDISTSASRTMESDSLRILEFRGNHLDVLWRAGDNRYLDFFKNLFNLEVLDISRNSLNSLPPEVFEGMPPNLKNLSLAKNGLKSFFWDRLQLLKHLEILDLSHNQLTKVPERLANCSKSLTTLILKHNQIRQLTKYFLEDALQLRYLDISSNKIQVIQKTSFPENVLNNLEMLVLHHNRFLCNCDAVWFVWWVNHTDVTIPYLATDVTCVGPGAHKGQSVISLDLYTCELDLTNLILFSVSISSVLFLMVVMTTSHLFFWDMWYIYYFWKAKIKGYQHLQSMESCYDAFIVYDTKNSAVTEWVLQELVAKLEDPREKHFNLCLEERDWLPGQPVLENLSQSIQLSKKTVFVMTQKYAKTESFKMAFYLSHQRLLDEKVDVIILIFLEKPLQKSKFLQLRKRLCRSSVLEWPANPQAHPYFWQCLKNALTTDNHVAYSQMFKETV
- assay: TLR7/8 reporter assay (HEK293, NFκB Nanoluc luciferase reporter), mouse TLR7
- condition: 24-hour incubation; read-out: mTLR7 EC50
readout-label: EC50 (nM)

Here's what some known entries look like.
>>> result_value("CCCCCNc1nc(N)nc2c(Br)cn(Cc3ccc(CN4CCC[C@H]4CO)cc3OC)c12 [Ex7]")
21.5
>>> result_value("CCCCCNc1nc(N)nc2c(Cl)cn(Cc3ccc(CN4CCC[C@H]4CO)cc3OC)c12 [Ex6]")
10.1

I: COc1cc(CN2CCNC[C@H]2CF)ccc1Cn1ccc2nc(N)nc(SCc3cc(C)on3)c21 [Ex11]
II: CCCCCSc1nc(N)nc2ccn(Cc3ccc(CN4CC[C@H]4CO)cc3OC)c12 [Ex13]
Select one: I or II . Criterion: greater recorded EC50. Answer by quoting the chosen item's label.
II

---

- target-of-assay: mouse TLR7 (Mus musculus)
- assay: TLR7/8 reporter assay (HEK293, NFκB Nanoluc luciferase reporter), mouse TLR7
- condition: 24-hour incubation; read-out: mTLR7 EC50
Structures can show the parent of a compound that is named as a salt.
readout-label: EC50 (nM)

>>> result_value("CCCCCSc1nc(N)nc2ccn(Cc3ccc(CN4CCNCC4)cc3OC)c12 [Ex4]")
39.9
>>> result_value("CCCCCSc1nc(N)nc2ccn(Cc3ccc(CN4CCC(O)CC4)cc3OC)c12 [Ex14]")
27.3
>>> result_value("CCCCCSc1nc(N)nc2ccn(Cc3ccc(CN4CCC[C@H]4CO)cc3OC)c12 [Ex5]")
26.7

a: CCCCCNc1nc(N)nc2cc(C)n(Cc3ccc(CN4CCNCC4)cc3OC)c12 [Ex8, hydrochloride]
b: CCCCCNc1nc(N)nc2ccn(Cc3ccc(CN4CCNC[C@H]4CF)cc3OC)c12 [Ex1]
c: CCCCCNc1nc(N)nc2ccn(Cc3ccc(CC4CCNCC4)cc3OC)c12 [Ex9]
Put the items in sequence by EC50, from largest down. // ordering of labels required in reply
a, c, b
